Assay: Drug metabolism in human liver microsomes
Type: ADME, Microsome
Conditions: read-out: Drug metabolism
The reader will find reported metabolised values listed item by item below.

>>> print(df.to_string())
                                   molecule  readoutvalue
0  C[C@H]1CN(c2ccc3nc(-c4ccc(F)cc4)c(-c4ccncc4)n3n2)CCN1           66%
1  c1ccc(-c2nc3ccc(N4CC5CC4CN5)nn3c2-c2ccncc2)cc1 (stereo not given)           18%

Ask: Give the value of metabolised reported for the following: Cc1cc(C)cc(-c2nc3ccc(N4CCNC(C)(C)C4)nn3c2-c2ccncc2)c1
Result: 13%

Ask: Give the value of metabolised reported for the following: c1ccc(-c2nc3ccc(N4CCC(N5CCCC5)CC4)nn3c2-c2ccncc2)cc1
Result: 38.5%

Ask: Give the value of metabolised reported for the following: C[C@H]1CN(c2ccc3nc(-c4ccccc4)c(-c4ccncc4)n3n2)CCN1
Result: 56%
